# System: SARS-CoV-2 USA_WA1/2020
# TEST_PROTOCOL: microbe, parasite or virus in culture
# Type: cell-based
# TEST_SETTINGS: Example C (Table 3)
Where a name gives a salt, the structure may show the parent alone. Residues, ends and D or L forms follow the SMILES beside them. *: point of attachment. Cbz = O=C(OCc1ccccc1)*; CH2F = FC*
We label by threshold. Values of Concentration at Maximum % Inhibition strictly beneath 30 µM are yes. Values of 30 µM and up are no.

- CCOC(=O)[C@H]1O[C@@H]1C(=O)N[C@@H](CC(C)C)C(=O)NCCC(C)C [Aloxistatin]: yes
- Nc1c(Br)cc(Br)cc1CN[C@H]1CC[C@H](O)CC1 [AMB, hydrochloride]: no
- CN(Cc1cc(Br)cc(Br)c1N)C1CCCCC1 [BHH, Bromhexine hydrochloride]: no
- CC(C)C[C@H](NC(=O)OCc1ccccc1)C(=O)N[C@@H](CC(C)C)C(=O)N[C@@H](Cc1ccc(O)cc1)C(=O)CF [Calpain Inhibitor IV] (Cbz-Leu-Leu-Tyr-CH2F): yes

###

# Tested on: SARS-CoV-2 USA_WA1/2020
# TEST_PROTOCOL: microbe, parasite or virus in culture
# Format: cell-based
# TEST_SETTINGS: Example C (Table 3); read-out: IC 50 against SARS-COV-2 Induced Cytopathic Effect in Vero E6 Cells
pIC50: −log10 of the molar value.
MEASURE_NAME: pIC50

- CCC(CC)COC(=O)[C@H](C)N[P@](=O)(OC[C@H]1O[C@@](C#N)(c2ccc3c(N)ncnn23)[C@H](O)[C@@H]1O)Oc1ccccc1: 4.79
- CCOC(=O)[C@H]1O[C@@H]1C(=O)N[C@@H](CC(C)C)C(=O)NCCC(C)C: 5.34

###

# ASSAY_TARGET: recombinant human ACE2 (rhACE2) (Homo sapiens)
# Construct: purchased BPS Bioscience 79923
# Sequence (Q9BYF1 18-805): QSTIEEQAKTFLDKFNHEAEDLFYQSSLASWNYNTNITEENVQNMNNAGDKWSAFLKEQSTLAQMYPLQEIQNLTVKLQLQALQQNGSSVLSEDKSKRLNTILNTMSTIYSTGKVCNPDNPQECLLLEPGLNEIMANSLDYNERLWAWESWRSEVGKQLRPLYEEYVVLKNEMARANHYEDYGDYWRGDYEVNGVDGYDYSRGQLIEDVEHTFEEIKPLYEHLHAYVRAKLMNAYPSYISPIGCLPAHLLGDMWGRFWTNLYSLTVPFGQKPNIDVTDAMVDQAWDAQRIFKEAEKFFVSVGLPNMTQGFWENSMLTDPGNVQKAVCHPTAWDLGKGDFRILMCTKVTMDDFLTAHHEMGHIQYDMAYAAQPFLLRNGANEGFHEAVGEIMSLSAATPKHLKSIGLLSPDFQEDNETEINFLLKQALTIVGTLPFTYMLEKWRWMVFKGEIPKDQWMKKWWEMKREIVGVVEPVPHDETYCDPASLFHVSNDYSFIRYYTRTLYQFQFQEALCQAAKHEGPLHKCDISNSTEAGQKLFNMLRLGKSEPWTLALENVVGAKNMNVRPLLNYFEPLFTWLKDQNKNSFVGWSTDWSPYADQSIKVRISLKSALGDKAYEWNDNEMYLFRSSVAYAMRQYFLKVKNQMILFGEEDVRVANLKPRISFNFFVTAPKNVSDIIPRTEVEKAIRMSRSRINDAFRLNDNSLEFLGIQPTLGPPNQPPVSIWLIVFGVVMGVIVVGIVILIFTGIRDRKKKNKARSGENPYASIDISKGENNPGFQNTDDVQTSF
# TEST_PROTOCOL: ACE2 exopeptidase inhibitor screening assay (fluorogenic substrate), AMB and BHH
# Assay type: biochemical
# TEST_SETTINGS: read-out: IC50, exopeptidase function of ACE2
Counter-ions that a name gives are not always drawn.
MEASURE_NAME: IC50

• CN(Cc1cc(Br)cc(Br)c1N)C1CCCCC1 [BHH, Bromhexine hydrochloride] = 26 µM

###

# TEST_PROTOCOL: in vitro
# TEST_SETTINGS: African green monkey
MEASURE_NAME: CC50 at 72 h

- CCN(CC)CCCC(C)Nc1ccnc2cc(Cl)ccc12 (stereo not shown): > 30 µM

###

List of Conc. at Min. % Viability values.
# Tested on: Vero E6 cells
# TEST_SETTINGS: Vero E6; Example C (Table 4)
Where a name gives a salt, the structure may show the parent alone. Residues, ends and D or L forms follow the SMILES beside them. *: point of attachment. Cbz = O=C(OCc1ccccc1)*; CH2F = FC*
MEASURE_NAME: Conc. at Min. % Viability (nM)

• CC(C)C[C@H](NC(=O)OCc1ccccc1)C(=O)N[C@@H](CC(C)C)C(=O)N[C@@H](Cc1ccc(O)cc1)C(=O)CF [Calpain Inhibitor IV] (Cbz-Leu-Leu-Tyr-CH2F) = 28
• CCN(CC)CCCC(C)Nc1ccnc2cc(Cl)ccc12 (centres unmarked) = 3750
• Nc1c(Br)cc(Br)cc1CN[C@H]1CC[C@H](O)CC1 [AMB, hydrochloride] = 300000
• CCC(CC)COC(=O)[C@H](C)N[P@](=O)(OC[C@H]1O[C@@](C#N)(c2ccc3c(N)ncnn23)[C@H](O)[C@@H]1O)Oc1ccccc1 = 117
• CCOC(=O)[C@H]1O[C@@H]1C(=O)N[C@@H](CC(C)C)C(=O)NCCC(C)C = 117
